Reported OD450 values for the following binders.
target: Peptide 5: Biotin-…-[Tyr(PC)]-acid; assay: scFv ELISA
Sequence (peptide, as listed by the source): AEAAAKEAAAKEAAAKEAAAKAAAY
Quick reminder: number only, in OD450, skip the unit.

Below are worked cases with known answers.
PcOxP_DB04_H10 (scFv, V domains shown, scFv in periplasmic extract) VH: EVQLLESGGGLVQPGGSLRLSCAASGATFSDFYVEWVRQAPGKGLEWVAASRNKANDYTTEYADSVKGRFTISRDNSKNTLYLQMNSLRAEDTAVYYCARDYYGSSYWYFDVWGQGTLVTVSS VL: DIQMTQSPSSLSASVGDRVTITCTASESLYSSKHKVHYLAWYQQKPGKAPKLLIYGPSNRYIGVPSRFSGSGSGTDFTLTISSLQPEDFATYYCAQFYSYPLTFGGGTKVEIK : 1.01
PcOxP_DB02_H09 (scFv, V domains shown, scFv in periplasmic extract) VH: EVQLLESGGGLVQPGGSLRLSCAASGFTFSSYYMEWVRQAPGKGLEWVAASRNKANDYTYEYADSVKGRFTISRDNSKNTLYLQMNSLRAEDTAVYYCARDYYESSYWYFDVWGQGTLVTVSS VL: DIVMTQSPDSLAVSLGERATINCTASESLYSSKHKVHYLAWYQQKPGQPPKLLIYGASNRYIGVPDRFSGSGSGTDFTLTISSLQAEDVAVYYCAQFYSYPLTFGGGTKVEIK : 0.58
PcOxP_DB01_C04 (scFv, V domains shown, scFv in periplasmic extract) VH: EVQLLESGGGLVQPGGSLRLSCAASGFQFSDFYMEWVRQAPGKGLEWVAASRNKANDYTTEYADSVKGRFTISRDNSKNTLYLQMNSLRAEDTAVYYCARDYYGSSYWYFDVWGQGTLVTVSS VL: DIQMTQSPSSLSASVGDRVTITCTASESLYSSKHKVHYLAWYQQKPGKAPKLLIYGASNRYIGVPSRFSGSGSGTDFTLTISSLQPEDFATYYCAQFYYYPLTFGGGTKVEIK : 1.42
PcOxP_DB01_E05 (scFv, V domains shown, scFv in periplasmic extract) VH: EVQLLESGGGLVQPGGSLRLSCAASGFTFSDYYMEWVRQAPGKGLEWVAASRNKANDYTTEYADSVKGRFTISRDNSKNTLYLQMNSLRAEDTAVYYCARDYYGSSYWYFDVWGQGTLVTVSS VL: DIQMTQSPSSLSASVGDRVTITCTASESLYSSKHKVNYLAWYQQKPGKAPKLLIYGASNRYIGVPSRFSGSGSGTDFTLTISSLQPEDFATYYCAQFYQYPLTFGGGTKVEIK : 1.39

Turning to the following binder.
Inquiry: Param item = PcOxP_DB01_A06 (scFv, V domains shown, scFv in periplasmic extract) VH: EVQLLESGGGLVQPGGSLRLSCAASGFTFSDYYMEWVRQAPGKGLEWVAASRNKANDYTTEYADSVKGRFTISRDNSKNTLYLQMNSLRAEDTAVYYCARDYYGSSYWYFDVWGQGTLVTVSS VL: DIQMTQSPSSLSASVGDRVTITCTASESLYSSKHKVHYLAWYQQKPGKAPKLLIYGASNRYIGVPSRFSGSGSGTDFTLTISSLQPEDFATYYCAEFYSYPLTFGGGTKVEIK ; retrieve measured OD450.
Reply text: 1.18
